Entry source: patent US20010001104A1

Value kind: melting point

Task: Quick one: melting point for CC(C)C(=O)c1cn(Cc2c(F)cccc2F)c2sc(-c3ccc(NC(=O)CO)cc3)c(CN(C)Cc3ccccc3)c2c1=O.Cl ?
Result: 197 to 199 °C

Task: Quick check: melting point of CC(C)C(=O)c1cn(Cc2c(F)cccc2F)c2sc(-c3ccc(NC(=O)[C@H](C)CO)cc3)c(CN(C)Cc3ccccc3)c2c1=O.Cl ?
Result: 214 to 216 °C

Task: Quick one: melting point of CC(C)C(=O)Nc1ccc(-c2sc3c(c2CN(C)Cc2ccccc2)c(=O)c(C(=O)C(C)(C)O)cn3Cc2c(F)cccc2F)cc1 ?
Result: 170 to 172 °C

Task: // returns reported melting point for input CC(C)C(=O)c1cn(Cc2c(F)cccc2F)c2sc(-c3ccc(NC(=O)C4(O)CC4)cc3)c(CN(C)Cc3ccccc3)c2c1=O.Cl
Result: 220 to 222 °C

Task: State the recorded melting point for this entry: CONC(=O)Nc1ccc(-c2sc3c(c2CN(C)Cc2ccccc2)c(=O)c(C(=O)C(C)C)cn3Cc2c(F)cccc2F)cc1.Cl
Result: 225 to 230 °C

Task: Recorded melting point for CC(C)C(=O)c1cn(Cc2c(F)cccc2F)c2sc(-c3ccc(NC(=O)[C@H](C)CO)cc3)c(CN(C)Cc3ccccc3)c2c1=O , please?
Result: 161 to 162 °C

Task: So what does the record say about melting point for CN(Cc1ccccc1)Cc1c(-c2ccc(NC(=O)C(C)(C)O)cc2)sc2c1c(=O)c(C(=O)c1ccccc1)cn2Cc1c(F)cccc1F ?
Result: 222 to 223 °C

Task: Return reported melting point; argument: C[C@H](CO)C(=O)Nc1ccc(-c2sc3c(c2CN(C)Cc2ccccc2)c(=O)c(C(=O)c2ccccc2)cn3Cc2c(F)cccc2F)cc1
Result: 145 to 146 °C

Task: Record request: melting point value, item CC(C)C(=O)c1cn(Cc2c(F)cccc2F)c2sc(-c3ccc(NC(=O)C(C)(C)O)cc3)c(CN(C)Cc3ccccc3)c2c1=O
Result: 178 to 180 °C

Task: Reported melting point for CC(C)C(=O)c1cn(Cc2c(F)cccc2F)c2sc(-c3ccc(NC(=O)C(C)(C)O)cc3)c(CN(C)Cc3ccccc3)c2c1=O.Cl : what is it?
Result: 213 to 215 °C

Task: Item CC(C)C(=O)c1cn(Cc2c(F)cccc2F)c2sc(-c3ccc(NC(=O)CC(C)(C)O)cc3)c(CN(C)Cc3ccccc3)c2c1=O.Cl has what recorded melting point?
Result: 216 to 218 °C

###

Value kind: melting point

Task: Can you look up the measured melting point of CC(C)C(=O)c1cn(Cc2c(F)cccc2F)c2sc(-c3ccc(NC(=O)C4CC4)cc3)c(CN(C)Cc3ccccc3)c2c1=O.Cl [Example 1-2] for me?
Result: 254 to 256 °C

Task: Given CC(C)C(=O)c1cn(Cc2c(F)cccc2F)c2sc(-c3ccc(NC(=O)C(C)CO)cc3)c(CN(C)Cc3ccccc3)c2c1=O (stereo not drawn) [Example 3] , state its recorded melting point.
Result: 161 to 162 °C

Task: Quick check: melting point of CN(Cc1ccccc1)Cc1c(-c2ccc(NC(=O)C3(O)CC3)cc2)sc2c1c(=O)c(C(=O)c1ccccc1)cn2Cc1c(F)cccc1F [Example 21] ?
Result: 186 to 188 °C

###

- Measurement target: GnRH receptors (Rattus norvegicus)
- Construct: Anterior lobes of the pituitary glands were isolated from forty Wistar rats; from tissue; host or cells: anterior lobe of the pituitary gland, male Wistar rats
- Sequence (P30969 whole entry): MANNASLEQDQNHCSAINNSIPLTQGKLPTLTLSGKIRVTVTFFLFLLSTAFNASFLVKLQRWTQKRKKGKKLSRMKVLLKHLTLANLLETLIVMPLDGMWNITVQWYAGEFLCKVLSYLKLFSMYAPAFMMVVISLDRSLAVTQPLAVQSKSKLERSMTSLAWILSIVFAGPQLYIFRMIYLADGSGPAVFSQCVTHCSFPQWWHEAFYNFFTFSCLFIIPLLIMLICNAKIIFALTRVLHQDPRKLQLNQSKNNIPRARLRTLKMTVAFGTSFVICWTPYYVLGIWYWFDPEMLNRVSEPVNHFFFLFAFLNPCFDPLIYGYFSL
- Experimental details: 125I-leuprorelin binding inhibition, rat pituitary anterior lobe membrane fraction
- Condition info: rat pituitary anterior lobe membrane fraction; 125I-leuprorelin; Hill plot
Value kind: IC50 (µM)
API: value field is a number in µM; no unit string.

Task: Enter reported IC50 observed with GnRH receptors (Rattus norvegicus) for CC(C)C(=O)c1cn(Cc2c(F)cccc2F)c2sc(-c3ccc(NC(=O)C(C)CO)cc3)c(CN(C)Cc3ccccc3)c2c1=O (centres unmarked)
Result: 0.6

Task: Tell me reported IC50 for CC(C)C(=O)c1cn(Cc2c(F)cccc2F)c2sc(-c3ccc(NC(=O)C4CC4)cc3)c(CN(C)Cc3ccccc3)c2c1=O.Cl [Example 1-2, Hydrochloride] , tested with GnRH receptors (Rattus norvegicus).
Result: 0.06

###

- Measurement target: human GnRH receptor (Homo sapiens)
- Construct: expressed in transfected cells; host or cells: CHO (Chinese hamster ovarian) cells
- Sequence (P30968 whole entry): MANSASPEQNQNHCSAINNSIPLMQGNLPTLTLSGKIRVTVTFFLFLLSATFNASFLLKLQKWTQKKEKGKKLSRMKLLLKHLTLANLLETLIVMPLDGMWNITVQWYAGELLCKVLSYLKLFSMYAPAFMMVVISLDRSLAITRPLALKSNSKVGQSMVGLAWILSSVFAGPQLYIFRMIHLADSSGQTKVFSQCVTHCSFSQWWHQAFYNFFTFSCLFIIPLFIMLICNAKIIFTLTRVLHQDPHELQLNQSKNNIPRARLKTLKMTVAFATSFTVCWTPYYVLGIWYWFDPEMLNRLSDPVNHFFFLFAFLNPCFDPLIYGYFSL
- Experimental details: 125I-leuprorelin binding inhibition, CHO cell membrane fraction containing human GnRH receptor
Value kind: pIC50
// pIC50: -log10(molar conc.)

Task: What pIC50 value was documented for this molecule, CC(C)C(=O)c1cn(Cc2c(F)cccc2F)c2sc(-c3ccc(NC(=O)C(C)CO)cc3)c(CN(C)Cc3ccccc3)c2c1=O (stereo not shown) ?
Result: 9.70

###

- Measurement target: human GnRH receptor (Homo sapiens)
- Construct: expressed in transfected cells; host or cells: CHO (Chinese hamster ovarian) cells
- Experimental details: 125I-leuprorelin binding inhibition, CHO cell membrane fraction containing human GnRH receptor
- Condition info: CHO membrane fraction with human GnRH receptors; 125I-leuprorelin; Hill plot; read-out: IC50 value (μM) Human
Value kind: IC50 (µM)
// return numeric value only (unit: µM, not printed)

Task: Returns the measured IC50 for the input compound. Input: CC(C)C(=O)c1cn(Cc2c(F)cccc2F)c2sc(-c3ccc(NC(=O)C4CC4)cc3)c(CN(C)Cc3ccccc3)c2c1=O.Cl [Example 1-2, Hydrochloride]
Result: 0.0001
